# system.under.test: T1, PF4/heparin complex (human PF4 complexed with heparin) (human, UniProt P02776 32-101)
# T1 construct: Multimeric complex of PF4 with heparin (not a protein); In the EIAs: PF4 captured on biotinylated heparin on streptavidin plates; In the SRA: platelets with 0.2 U/mL heparin; also called PF4 and heparin complexes
# T1 sequence: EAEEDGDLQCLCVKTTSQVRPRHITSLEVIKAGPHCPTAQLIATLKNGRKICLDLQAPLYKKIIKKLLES
# measurement.notes: competition EIA, scFv 50 µg/mL; competitor HIT-negative sera antibodies, n=10
Each entry below lists one item and its recorded mean % inhibition of serum antibody binding value.
Give your result in % as a bare value.

- binder: "Mutant E scFv, scFv(Y156H, D180G, Q233P) (scFv, VL-linker-VH; histidine-tagged, from E. coli BL21; also called Mut E; not shown: histidine tag from the pADL-22c vector) scFv: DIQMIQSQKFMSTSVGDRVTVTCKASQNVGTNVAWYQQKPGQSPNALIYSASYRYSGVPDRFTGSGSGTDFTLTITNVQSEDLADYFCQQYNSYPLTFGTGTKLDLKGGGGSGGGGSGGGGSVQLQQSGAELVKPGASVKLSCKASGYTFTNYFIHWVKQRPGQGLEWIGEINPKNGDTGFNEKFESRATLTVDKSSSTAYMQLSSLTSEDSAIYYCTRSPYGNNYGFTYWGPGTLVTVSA"
  observed.result: -34

Qu. Name the reported mean % inhibition of serum antibody binding value associated with the binder Mutant D scFv, scFv(Y156H) (scFv, VL-linker-VH; histidine-tagged, from E. coli BL21; also called Mut D; not shown: histidine tag from the pADL-22c vector) scFv: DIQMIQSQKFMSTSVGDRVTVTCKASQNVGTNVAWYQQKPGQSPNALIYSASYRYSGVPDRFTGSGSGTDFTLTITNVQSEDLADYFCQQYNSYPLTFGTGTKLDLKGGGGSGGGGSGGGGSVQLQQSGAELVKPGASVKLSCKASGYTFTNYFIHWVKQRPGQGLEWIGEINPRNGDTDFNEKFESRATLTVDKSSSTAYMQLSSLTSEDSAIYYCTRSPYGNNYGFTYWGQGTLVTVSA
Ans. -17.3

Cited source: patent US20250011413A1
